Listing of entries alongside the reported pKi.
- SUBJECT_OF_TEST: Adenosine receptor A1 (Rattus norvegicus, UniProt P25099)
- Sequence (P25099 whole entry): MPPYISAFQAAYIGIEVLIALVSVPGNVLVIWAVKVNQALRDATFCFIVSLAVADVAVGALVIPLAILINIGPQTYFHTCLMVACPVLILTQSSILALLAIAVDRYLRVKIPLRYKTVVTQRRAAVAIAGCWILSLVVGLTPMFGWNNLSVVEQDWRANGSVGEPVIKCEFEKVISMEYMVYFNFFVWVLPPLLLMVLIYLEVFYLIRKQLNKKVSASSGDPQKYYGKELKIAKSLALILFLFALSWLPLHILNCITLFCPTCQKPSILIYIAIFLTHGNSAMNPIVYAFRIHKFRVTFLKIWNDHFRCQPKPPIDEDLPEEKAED
Reminder that pKi is minus the log10 of a molar concentration.

Known pKi results, listed for orientation:
COMPOUND | pKi
O[C@@H]1[C@H](O)[C@@H](CCl)O[C@H]1n1cnc2c(NC3CCCC3)ncnc21 | 9.14
OC[C@H]1O[C@@H](n2cnc3c(NC4CC5CCC4C5)ncnc32)[C@H](O)[C@@H]1O (some centres undefined) | 9.38
OC[C@H]1O[C@@H](n2cnc3c(NC4C[C@H]5CC[C@@H]4C5)ncnc32)[C@H](O)[C@@H]1O (some centres undefined) | 9.04

Next compound, please.
Req: Lookup: pKi / Adenosine receptor A1 (Rattus norvegicus, UniProt P25099) / OC[C@H]1O[C@@H](n2cnc3c(N[C@H]4CC5CCC4C5)ncnc32)[C@H](O)[C@@H]1O (single isomer, unassigned)
Resp: 9.52
